Data origin: the supplement of paper PMC10567573

Assay: protein stability index of a GFP-peptide fusion (GPS, HEK-293T) (PSI 1-6); higher = more stable;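 further: 24-mer peptide tiles fused after GFP, lentivirally expressed, FACS-sorted into six equal bins by GFP/DsRed ratio, decoded by Illumina sequencing, PSI is the read-weighted mean bin number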
Conditions: treatment: DMSO; c terminus: a fixed tail appended
protein stability index by entry:
Lab note: jot down the number only; don't add units.

Req: Quick check: protein stability index of ERTRKPYNNDIDYYAKRNALRAAE [GALNT9] ?
Resp: 4.1

Req: Can you check KTQSELASESEHIPKPQSTGWFGG [MIA2] next?
Resp: 3.97

Req: Can you check TSQFLSLQCLQALYVDSLFFLRGR [PRAME] next?
Resp: 2.49

Req: Can you check PAPAFQPFFFTGAFPFNMQELVLK [ANKRD40] next?
Resp: 2.07

Req: Can you check TLAALLLNRSESDIRYLLGYVSQQ [FEM1B] next?
Resp: 2.39

Req: Can you check LRDGGGLTPLELLLRQLGRDAGAT [ANKRD9] next?
Resp: 2.79

Req: Can you check SEGFESDSSHDSARASEGSDSGSD [SMG5] next?
Resp: 5.51
